Test system: Escherichia coli
Assay: microbe, parasite or virus in culture
Details: ATCC 25922
Description: Antibacterial activity against Escherichia coli ATCC 25922 assessed as reduction in microbial growth preincubated for 20 to 24 hrs followed by subculture in absence of compound and measured on day 4 CLSI based broth microdilution susceptibility method
observation type: MIC (µg/mL)

A: CCNc1cc(F)cc2c1[nH]c1ncc(-c3cncc(C#N)c3)c(-n3ccc(C(F)(F)F)n3)c12
B: CCNc1cc(F)cc2c1[nH]c1ncc(-c3cncc(C#N)c3)c(-n3ccc(C)n3)c12
Enquiry: Thinking about recorded MIC values, which is higher, A or B ? In your reply, give the label of the chosen option.
Return: B

----------
Tested on: Escherichia coli
Test: microbe, parasite or virus in culture
Details: ATCC 25922
observation type: MIC (µg/mL)

{"chemical smiles": "CCNc1cc(F)cc2c1[nH]c1ncc(-c3cnc4ccnn4c3)c(-n3ccc(C(F)(F)F)n3)c12", "test system": "Escherichia coli", "MIC [µg/mL]": 0.25}
{"chemical smiles": "CCNc1cc(F)cc2c1[nH]c1ncc(-c3cnc(OC4CCNCC4)nc3)c(-n3ccc(C(F)(F)F)n3)c12", "test system": "Escherichia coli", "MIC [µg/mL]": 1}
{"chemical smiles": "CCNc1cc(F)cc2c1[nH]c1ncc(-c3cncc(C#N)c3)c(-n3ncc4c3CCNC4)c12", "test system": "Escherichia coli", "MIC [µg/mL]": 4}

a: CCNc1cc(F)cc2c1[nH]c1ncc(-c3cncc(C#N)c3)c(-n3ncc4c3CNCC4)c12
b: CCNc1cc(F)cc2c1[nH]c1ncc(-c3cncc(N4CCOCC4)c3)c(-n3ccc(C(F)(F)F)n3)c12
Enquiry: Given the two records a and b , choose the one whose MIC value is lower. // respond with label for picked entry
Return: b
(b: 1 µg/mL, a: 2 µg/mL)

----------
System: Pseudomonas aeruginosa
Experiment: Antibacterial activity against Pseudomonas aeruginosa ATCC 27853 assessed as reduction in microbial growth preincubated for 20 to 24 hrs followed by subculture in absence of compound and measured on day 4 CLSI based broth microdilution susceptibility method
Format: functional
Conditions: time hrs 20-24
observation type: MIC (µg/mL)

P: CCNc1cc(F)cc2c1[nH]c1ncc(-c3cnc4ccnn4c3)c(-n3ccc(C(F)(F)F)n3)c12
Q: CCNc1cc(F)cc2c1[nH]c1ncc(-c3cncc(C#N)c3)c(-n3ccc(C(F)(F)F)n3)c12
Enquiry: For P and Q , which recorded MIC is lower? Refer to your chosen entry by its label in the reply.
Return: P
(P: 1.5 µg/mL, Q: 5.82 µg/mL)

----------
Experiment: Distribution coefficient between octanol and buffer, log D of the compound in pH 7.4 buffer by CAMDIS assay
Format: physicochemical
observation type: logD

Reference set (7 entries):
{"chemical smiles": "CCNc1cc(F)cc2c1[nH]c1ncc(-c3cncc(Cc4n[nH]c(=O)o4)c3)c(-n3ccc(C(F)(F)F)n3)c12", "logD": 3.38}
{"chemical smiles": "CCNc1cc(F)cc2c1[nH]c1ncc(-c3cncc(CN)c3)c(-n3ccc(C(F)(F)F)n3)c12", "logD": 2.94}
{"chemical smiles": "CCNc1cc(F)cc2c1[nH]c1ncc(-c3cncc(Cc4ncc[nH]4)c3)c(-n3ccc(C(F)(F)F)n3)c12", "logD": 3.62}
{"chemical smiles": "CCNc1cc(F)cc2c1[nH]c1ncc(-c3cncc(CO)c3)c(-n3ccc(C(F)(F)F)n3)c12", "logD": 3.56}
{"chemical smiles": "CCNc1cc(F)cc2c1[nH]c1ncc(-c3cnc4ccnn4c3)c(-n3ccc(C(F)(F)F)n3)c12", "logD": 3.54}
{"chemical smiles": "CCNc1cc(F)cc2c1[nH]c1ncc(-c3cncc(Cc4ncco4)c3)c(-n3ccc(C(F)(F)F)n3)c12", "logD": 3.66}
{"chemical smiles": "CCNc1cc(F)cc2c1[nH]c1ncc(-c3cncc(C(=O)NC)c3)c(-n3ccc(C(F)(F)F)n3)c12", "logD": 3.42}

A: CCNc1cc(F)cc2c1[nH]c1ncc(-c3cncnc3)c(-n3ccc(C(F)(F)F)n3)c12
B: CCNc1cc(F)cc2c1[nH]c1ncc(-c3cncc(Cc4nnn[nH]4)c3)c(-n3ccc(C(F)(F)F)n3)c12
Enquiry: Parameter check: reported logD is higher for which label, A or B ? // caller expects the label of the chosen entry
Return: A
(A: 3.48, B: 1.93)

----------
Tested on: Pseudomonas aeruginosa
Test: Antibacterial activity against Pseudomonas aeruginosa ATCC 27853 assessed as reduction in microbial growth preincubated for 20 to 24 hrs followed by subculture in absence of compound and measured on day 4 CLSI based broth microdilution susceptibility method
Format: functional
Settings: time hrs 20-24
observation type: MIC (mg/L)

{"chemical smiles": "CCNc1cc(F)cc2c1[nH]c1ncc(-c3cnc(OC)nc3)c(-n3cc(CN)c(C(F)(F)F)n3)c12", "test system": "Pseudomonas aeruginosa", "MIC [mg/L]": 1.56}

a: CCNc1cc(F)cc2c1[nH]c1ncc(-c3cncnc3)c(-n3ccc(C(F)(F)F)n3)c12
b: CCNc1cc(F)cc2c1[nH]c1ncc(-c3cncc(N)c3)c(-n3ccc(C(F)(F)F)n3)c12
Enquiry: Hey, which is lower on measured MIC, a or b ? When you have decided, please share the label of that item.
Return: a

a: CCNc1cc(F)cc2c1[nH]c1ncc(-c3cnc(OC)nc3)c(-n3ncc4c3CNC4)c12
b: CCNc1cc(F)cc2c1[nH]c1ncc(-c3cncc(C(N)=O)c3)c(-n3ccc(C(F)(F)F)n3)c12
Enquiry: Field: entry with larger MIC (options a / b ). To answer, give the label that identifies your chosen option.
Return: a

----------
Tested on: Escherichia coli
Test: microbe, parasite or virus in culture
Conditions: ATCC 25922
observation type: MIC (µg/mL)

a: CCNc1cc(F)cc2c1[nH]c1ncc(-c3cncc(C#N)c3)c(-c3nc(C(F)(F)F)cs3)c12
b: CCNc1cc(F)cc2c1[nH]c1ncc(-c3cnc(N4CCOCC4)nc3)c(-n3ccc(C(F)(F)F)n3)c12
Enquiry: Two entries are listed, a and b . Which one carries the higher MIC? Answer by quoting the chosen item's label.
Return: b
(b: 1 µg/mL, a: 0.5 µg/mL)

I: CCNc1cc(F)cc2c1[nH]c1ncc(-c3cncc(CO)c3)c(-n3ccc(C(F)(F)F)n3)c12
II: CCNc1cc(F)cc2c1[nH]c1ncc(-c3cnc(OCC)nc3)c(-n3ccc(C(F)(F)F)n3)c12
III: CCNc1cc(F)cc2c1[nH]c1ncc(-c3cnc(NC4CNC4)nc3)c(-n3ccc(C(F)(F)F)n3)c12
Enquiry: Arrange the 3 entries by MIC so the values rise. Would you mind listing the labels in the order asked for?
Return: I, II, III
(I: 0.5 µg/mL, II: 2 µg/mL, III: 4 µg/mL)

I: CCNc1cc(F)cc2c1[nH]c1ncc(-c3cnc(NC4CCNC4)nc3)c(-n3ccc(C(F)(F)F)n3)c12 (stereo not drawn)
II: CCNc1cc(F)cc2c1[nH]c1ncc(-c3cnc([C@@H](C)O)nc3)c(-n3ccc(C(F)(F)F)n3)c12
Enquiry: Of I and II , whose reported MIC is numerically smaller? Please reply using the label of the selected record.
Return: II
(II: 0.5 µg/mL, I: 2 µg/mL)

----------
System: Escherichia coli
Experiment: microbe, parasite or virus in culture
Details: ATCC 25922
observation type: MIC (µg/mL)

See these solved cases before continuing.
{"chemical smiles": "CCNc1cc(F)cc2c1[nH]c1ncc(-c3cncnc3)c(-n3ccc(C(F)(F)F)n3)c12", "val": 0.25}
{"chemical smiles": "CCNc1cc(F)cc2c1[nH]c1ncc(-c3cnc(NCC4(C(=O)O)CC4)nc3)c(-n3ccc(C(F)(F)F)n3)c12", "val": 4}
{"chemical smiles": "CCNc1cc(F)cc2c1[nH]c1ncc(-c3cncc(C#N)c3)c(-n3cc4c(n3)CNC4)c12", "val": 4}
{"chemical smiles": "CCNc1cc(F)cc2c1[nH]c1ncc(-c3cnc(C4(C(=O)O)CC4)nc3)c(-n3ccc(C(F)(F)F)n3)c12", "val": 0.375}
{"chemical smiles": "CCNc1cc(F)cc2c1[nH]c1ncc(-c3cnc(OC)nc3)c(-n3nc(C(F)(F)F)c4c3CNC4)c12", "val": 1}

P: CCNc1cc(F)cc2c1[nH]c1ncc(-c3cncc(C#N)c3)c(-n3cc(C(F)(F)F)cn3)c12
Q: CCNc1cc(F)cc2c1[nH]c1ncc(-c3cncc(C(=O)NOC)c3)c(-n3ccc(C(F)(F)F)n3)c12
Enquiry: Please indicate which has the smaller reported MIC: P , or Q . Kindly give the label for the entry you pick.
Return: Q

a: CCNc1cc(F)cc2c1[nH]c1ncc(-c3cncc(CN)c3)c(-n3ccc(C(F)(F)F)n3)c12
b: CCNc1cc(F)cc2c1[nH]c1ncc(-c3cncc(C#N)c3)c(-n3ncc4c3CNC4)c12
Enquiry: Which shows the larger MIC value: a or b ? Write down the label attached to your selection.
Return: b

A: CCNc1cc(F)cc2c1[nH]c1ncc(-c3cnc4c(c3)c(=O)c(C(=O)O)cn4C)c(-n3ccc(C(F)(F)F)n3)c12
B: CCNc1cc(F)cc2c1[nH]c1ncc(-c3cnc([C@H](C)O)nc3)c(-n3ccc(C(F)(F)F)n3)c12
Enquiry: Higher MIC between A and B ? Label of pick, please.
Return: A
(A: 1 µg/mL, B: 0.5 µg/mL)
